Test: Displacement of [20-3H]PDBu from GST-tagged mouse PKC-delta C1B domain N7R/L20R mutant expressed in Escherichia coli after 2 to 30 mins by polyethylene glycol precipitation assay in presence of phosphatidylserine
Metric: pKi
# pKi: negative log10 of molar concentration; output just the value

# annotated cases, reported pKi shown
CC(C)C(CC(=O)OCC1(CO)C/C(=C\c2cccc(C(=O)O)c2)C(=O)O1)C(C)C (stereo not given)	4.34
CC(C)(C)C(=O)OCC1(CO)C/C(=C\c2cccc(C(=O)O)c2)C(=O)O1 (stereo not given)	3.98
CC(C)C(CC(=O)OCC1(CO)C/C(=C\c2ccc(C(=O)O)cc2)C(=O)O1)C(C)C (stereo not given)	3.93

For the molecule CC(C)(C)C(=O)OCC1(CO)C/C(=C\c2ccc(C(=O)O)cc2)C(=O)O1 (stereo not given) , report pKi.
4.08

Please give the documented pKi of CC(C)CC(C/C=C1\CC(CO)(COC(=O)C(C)(CO)CO)OC1=O)CC(C)C (stereo not given)
5.12

====

Test: Displacement of [20-3H]PDBu from GST-tagged mouse PKC-delta C1B domain S10R mutant expressed in Escherichia coli after 2 to 30 mins by polyethylene glycol precipitation assay in presence of phosphatidylserine
// Ki lookup, one value per entry
Kindly provide the numeric value in nM only, without the unit symbol.

Below are worked cases with known answers.
CC(C)C(CC(=O)OCC1(CO)C/C(=C\c2ccc(C(=O)O)cc2)C(=O)O1)C(C)C (configuration not stated)	813
CC(C)(C)C(=O)OCC1(CO)C/C(=C\c2ccc(C(=O)O)cc2)C(=O)O1 (configuration not stated)	667
CC(C)C(CC(=O)OCC1(CO)C/C(=C\c2ccc(O)cc2)C(=O)O1)C(C)C (configuration not stated)	1.18

Quick one: give measured Ki for CC(C)C(CC(=O)OCC1(CO)C/C(=C\c2ccccc2O)C(=O)O1)C(C)C (configuration not stated)
2.33

Supply Ki value. Item: CC(C)C(CC(=O)OCC1(CO)C/C(=C/c2ccc(C(=O)O)cc2)C(=O)O1)C(C)C (configuration not stated)
496

Give the reported value of Ki for this record: CC(C)(C)C(=O)OCC1(CO)C/C(=C\c2cccc(C(=O)O)c2)C(=O)O1 (configuration not stated)
1760

Input CC(C)C(CC(=O)OCC1(CO)C/C(=C\c2cccc(O)c2)C(=O)O1)C(C)C (configuration not stated) , output reported Ki.
2.08

====

Below, each entry is listed with its recorded Selectivity ratio.
Organism: Mus musculus
Test: Selectivity ratio of Ki for GST-tagged mouse PKC-delta C1B domain S10R mutant to Kd for GST-tagged full-length mouse PKC-delta C1B domain
Please give only the number in your answer, with no unit.

CC(C)C(CC(=O)OCC1(CO)C/C(=C/c2ccc(C(=O)O)cc2)C(=O)O1)C(C)C (centres undefined)	0.57
CC(C)CC(CC(=O)OCC1(CO)C/C(=C\c2ccccc2C(C(=O)OC(C)(C)C)C(=O)OC(C)(C)C)C(=O)O1)CC(C)C (centres undefined)	1.5
CC(C)CC(CC(=O)OCC1(CO)C/C(=C\c2cccc(C(C(=O)OC(C)(C)C)C(=O)OC(C)(C)C)c2)C(=O)O1)CC(C)C (centres undefined)	1.2

Quick one: give measured Selectivity ratio for CC(C)C(CC(=O)OCC1(CO)C/C(=C\c2ccc(O)cc2)C(=O)O1)C(C)C (centres undefined)
0.4

Return value of Selectivity ratio for input CC(C)C(CC(=O)OCC1(CO)C/C(=C\c2ccccc2O)C(=O)O1)C(C)C (centres undefined) , no commentary.
0.79

Identify Selectivity ratio associated with the compound CC(C)(C)C(=O)OCC1(CO)C/C(=C\c2cccc(C(=O)O)c2)C(=O)O1 (centres undefined)
1.46

====

Test: Displacement of [20-3H]PDBu from GST-tagged mouse PKC-delta C1B domain L20R mutant expressed in Escherichia coli after 2 to 30 mins by polyethylene glycol precipitation assay in presence of phosphatidylserine
Metric: pKi
# pKi: negative log10 of molar concentration; output just the value

Some solved entries appear below for comparison.
CC(C)C(CC(=O)OCC1(CO)C/C(=C\c2cccc(C(=O)O)c2)C(=O)O1)C(C)C (stereo not drawn)	5.55
CC(C)CC(CC(=O)OCC1(CO)C/C(=C\c2ccc(C(=O)O)cc2)C(=O)O1)CC(C)C (stereo not drawn)	6.13

Please supply the value of reported pKi for the item CC(C)C(CC(=O)OCC1(CO)C/C(=C\c2ccccc2O)C(=O)O1)C(C)C (stereo not drawn)
7.85

====

Species: Mus musculus
Experiment: Selectivity ratio of Ki for GST-tagged mouse PKC-delta C1B domain L20R mutant to Kd for GST-tagged full-length mouse PKC-delta C1B domain
Metric: Selectivity ratio
Give the figure by itself; no unit, no explanation.

CC(C)C(CC(=O)OCC1(CO)C/C(=C\c2ccc(C(=O)O)cc2)C(=O)O1)C(C)C (centres undefined)	12.4

Kindly indicate its recorded Selectivity ratio. Item: CC(C)C(CC(=O)OCC1(CO)C/C(=C/c2ccc(C(=O)O)cc2)C(=O)O1)C(C)C (centres undefined)
3.25

Return reported Selectivity ratio. Input molecule: CC(C)C(CC(=O)OCC1(CO)C/C(=C\c2cccc(O)c2)C(=O)O1)C(C)C (centres undefined)
7.87

Look up Selectivity ratio of CC(C)C(CC(=O)OCC1(CO)C/C(=C\c2cccc(C(=O)O)c2)C(=O)O1)C(C)C (centres undefined) and report it.
1.34

====

Organism: Mus musculus
Assay: Selectivity ratio of Ki for GST-tagged mouse PKC-delta C1B domain L20R mutant to Kd for GST-tagged full-length mouse PKC-delta C1B domain
Examples of compounds with documented Selectivity ratio follow.

CC(C)C(CC(=O)OCC1(CO)C/C(=C\c2ccc(O)cc2)C(=O)O1)C(C)C (centres undefined)	3.2
CC(C)C(CC(=O)OCC1(CO)C/C(=C\c2ccccc2O)C(=O)O1)C(C)C (centres undefined)	4.75
CC(C)(C)C(=O)OCC1(CO)C/C(=C\c2cccc(C(=O)O)c2)C(=O)O1 (centres undefined)	4.57

Now let's try a different one.
Report Selectivity ratio for CC(C)CC(C/C=C1\CC(CO)(COC(=O)C(C)(CO)CO)OC1=O)CC(C)C (centres undefined)
1.04

====

Kd for assorted compounds
Biological target: Protein kinase C delta type (Mus musculus, UniProt P28867)
Sequence (P28867 whole entry, the tested form may be a part): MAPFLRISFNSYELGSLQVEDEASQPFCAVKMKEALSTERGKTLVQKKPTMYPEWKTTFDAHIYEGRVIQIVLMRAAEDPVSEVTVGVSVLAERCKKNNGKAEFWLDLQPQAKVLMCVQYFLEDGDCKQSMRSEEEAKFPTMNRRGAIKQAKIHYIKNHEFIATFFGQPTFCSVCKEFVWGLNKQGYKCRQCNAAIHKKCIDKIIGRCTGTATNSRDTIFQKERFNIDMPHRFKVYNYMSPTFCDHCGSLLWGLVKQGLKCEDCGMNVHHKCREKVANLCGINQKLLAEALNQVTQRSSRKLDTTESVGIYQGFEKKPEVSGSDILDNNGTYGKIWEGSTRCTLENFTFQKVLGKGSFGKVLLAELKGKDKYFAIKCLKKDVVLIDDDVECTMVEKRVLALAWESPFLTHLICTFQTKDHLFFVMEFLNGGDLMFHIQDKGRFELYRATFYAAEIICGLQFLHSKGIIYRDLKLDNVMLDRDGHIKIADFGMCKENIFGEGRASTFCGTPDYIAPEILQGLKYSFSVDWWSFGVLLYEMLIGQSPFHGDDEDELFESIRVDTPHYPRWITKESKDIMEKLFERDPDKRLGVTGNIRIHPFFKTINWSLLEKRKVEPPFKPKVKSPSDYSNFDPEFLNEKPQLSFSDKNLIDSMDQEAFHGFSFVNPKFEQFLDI
Test: Displacement of [20-3H]PDBu from GST-tagged full-length mouse PKC-delta C1B domain expressed in Escherichia coli after 2 to 30 mins by polyethylene glycol precipitation assay in presence of phosphatidylserine
Write down the numeric answer in nM and omit the unit.

The following compounds have reported results that may help.
CC(C)C(CC(=O)OCC1(CO)C/C(=C/c2ccc(C(=O)O)cc2)C(=O)O1)C(C)C (stereo not drawn)	865
CC(C)CC(C/C=C1\CC(CO)(COC(=O)C(C)(CO)CO)OC1=O)CC(C)C (stereo not drawn)	777

Next:
Return Kd (reported value) for this compound: `CCCC(=O)O[C@@H]1[C@@H](C)[C@@]2(O)[C@@H](C=C(CO)C[C@]3(O)C(=O)C(C)=C[C@@H]23)[C@@H]2C(C)(C)[C@]12OC(=O)CCC`
0.23

====

Organism: Mus musculus
Test: Selectivity ratio of Ki for GST-tagged mouse PKC-delta C1B domain S10R mutant to Kd for GST-tagged full-length mouse PKC-delta C1B domain
Label True when Selectivity ratio is at or above 0.8; otherwise label False.

Reported Selectivity ratio at or above 0.8? CC(C)(C)C(=O)OCC1(CO)C/C(=C\c2ccc(C(=O)O)cc2)C(=O)O1 (stereo not drawn)
False

Is the recorded value of Selectivity ratio equal to or greater than 0.8 for this molecule? CC(C)CC(CC(=O)OCC1(CO)C/C(=C\c2cccc(C(=O)O)c2)C(=O)O1)CC(C)C (stereo not drawn)
True

Confirm if Selectivity ratio reported for the molecule CC(C)CC(C/C=C1\CC(CO)(COC(=O)C(C)(CO)CO)OC1=O)CC(C)C (stereo not drawn) is 0.8 or above.
True

Assess whether reported Selectivity ratio for CC(C)C(CC(=O)OCC1(CO)C/C(=C\c2cccc(O)c2)C(=O)O1)C(C)C (stereo not drawn) sits at 0.8 or higher.
True

====

Collected Selectivity ratio values appear next to each entry.
Species on record: Mus musculus
Experiment: Selectivity ratio of Ki for GST-tagged mouse PKC-delta C1B domain S10R mutant to Kd for GST-tagged full-length mouse PKC-delta C1B domain

Consider the reported Selectivity ratio for these molecules:
CC(C)CC(CC(=O)OCC1(CO)C/C(=C\c2ccc(C(C(=O)OC(C)(C)C)C(=O)OC(C)(C)C)cc2)C(=O)O1)CC(C)C (centres undefined)	1
CC(C)C(CC(=O)OCC1(CO)C/C(=C\c2cccc(C(=O)O)c2)C(=O)O1)C(C)C (centres undefined)	0.4
CC(C)C(CC(=O)OCC1(CO)C/C(=C\c2ccc(C(=O)O)cc2)C(=O)O1)C(C)C (centres undefined)	1.45

Find the measured Selectivity ratio of CC(C)CC(CC(=O)OCC1(CO)C/C(=C\c2ccc(C(=O)O)cc2)C(=O)O1)CC(C)C (centres undefined) and report it.
0.98
